Attribution: paper PMC9936582

# target: UniProtKB Q06187
# Sequence (Q06187 whole entry): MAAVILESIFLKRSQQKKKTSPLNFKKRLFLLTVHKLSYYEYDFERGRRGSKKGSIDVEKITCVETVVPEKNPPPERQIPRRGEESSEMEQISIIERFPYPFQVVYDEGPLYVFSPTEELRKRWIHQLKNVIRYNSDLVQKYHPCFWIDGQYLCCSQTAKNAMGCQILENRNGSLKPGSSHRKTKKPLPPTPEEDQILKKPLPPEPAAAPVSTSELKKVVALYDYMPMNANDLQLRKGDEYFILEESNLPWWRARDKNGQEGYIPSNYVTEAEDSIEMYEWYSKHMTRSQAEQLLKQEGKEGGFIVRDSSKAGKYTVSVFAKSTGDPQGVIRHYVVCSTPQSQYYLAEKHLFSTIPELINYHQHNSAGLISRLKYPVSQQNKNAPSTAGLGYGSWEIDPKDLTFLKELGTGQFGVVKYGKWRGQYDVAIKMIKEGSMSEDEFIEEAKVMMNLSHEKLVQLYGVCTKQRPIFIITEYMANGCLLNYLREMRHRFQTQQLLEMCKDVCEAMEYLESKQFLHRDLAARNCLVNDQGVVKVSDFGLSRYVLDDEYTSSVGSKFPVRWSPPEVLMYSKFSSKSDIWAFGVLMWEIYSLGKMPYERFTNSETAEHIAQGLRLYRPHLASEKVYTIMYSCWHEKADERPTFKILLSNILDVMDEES
# experiment-notes: BTK activity (autophosphorylation) in Mino cells, Western blot
# Format: cell-based
# Set-up: endogenous in cells; host or cells: Mino cells
# condition-parameters: anti-IgM activation, Western blot normalized to β-actin
Here, each record is paired with measured pIC50 data.
// pIC50 here means minus log10 of the molar concentration (mol/L)

Consider the worked cases shown below.
| molecule | target | observed-measurement |
| --- | --- | --- |
| CNS(=O)(=O)OCC(=O)N1CCC[C@@H](n2nc(-c3ccc(Oc4ccccc4)cc3)c3c(N)ncnc32)C1 [3c] | UniProtKB Q06187 | 8.44 |
| CS(=O)(=O)OCC(=O)N1CCC[C@@H](n2nc(-c3ccc(Oc4ccccc4)cc3)c3c(N)ncnc32)C1 [3b] | UniProtKB Q06187 | 8.22 |

What does the record list as pIC50 for Nc1ncnc2c1c(-c1ccc(Oc3ccccc3)cc1)nn2[C@@H]1CCCN(C(=O)COS(=O)(=O)NCc2ccccc2)C1 [3d] ?
6.79
